# ASSAY OVERVIEW: yeast display, Sf9 membrane polyspecificity reagent, FACS + sequencing; frameworks hold sequencing errors
ATTRIBUTE MEASURED: polyreactivity (PSR sort gate)

[ask] State, in one line, measured polyreactivity (PSR sort gate) of QVQLVESGGGLVQAGGTLRLTCAASGLTFGSNAMGWYRTAPGKERELVAAISVSGSTYYADSVKGRFTISRDNAKNTVYLLMNSLKPEDTAVYYCATYWAAGSRSRYASWGQGTQVTVSS
[reply] high polyreactivity

[ask] Output measured polyreactivity (PSR sort gate) for this item: QVQLVDSGGGLVQAGGSLRLSCAASGSIFVGNAMGWYRQAPGKERELVAAITSSGGRTYYADSVKGRFTISRDNAKYTVYLQMNSLKAEDTSVYYCNTSRTRRFSLWDYDYWGQGTQVSVSS
[reply] high polyreactivity

[ask] Look up and state reported polyreactivity (PSR sort gate) for QVQLVESGGGLVQAGGSLRFSCAASRLTFYWYAMGWYRQPPGKERELVAGISWSGGSTYADSVKGRFTITRDNAKNTVYLQLNSLKPEDTAVYYCAADTYYYRGQSYYYWGQGTEVTVSS
[reply] high polyreactivity

[ask] Indicate the recorded polyreactivity (PSR sort gate) value for this sequence: QVQLVESGGGLVQAGGSHRLSCSASGQTFVKNAMGWYRQAPGKERELVAAITVSGSRTYYADSVKGRFTISRDNAKNTVYLQMNSLKPEDTAVYYCAAKTADRFAPYYYWGQGTQVTVSS
[reply] high polyreactivity

[ask] Output polyreactivity (PSR sort gate) of QVQLVESGGGLVQAGGSLRLSCAASGRTGYMGWYRQAPGKERELVAAITSRGGSTYYADSVKGRFTISRDNAKNTVYLQMNSLKPEDTAVYYCAAPAYHKRTSRGDYWGQGTQVTVSS
[reply] low polyreactivity

[ask] Name the recorded polyreactivity (PSR sort gate) of the item QVQLVESGGGLVQAGGSLRLSCAASGFIFYQYAMGWYRQAPGKERELVAVISRTGSTSYADSVKGRFTISRDNAKNTVYLQMNSLKPEDTAVYYCAARYYFYDYWGQGSQVTVSS in your answer.
[reply] high polyreactivity

[ask] Find the measured polyreactivity (PSR sort gate) of QVQLEESGGGLVQAGGSLRLSCAASGRIFNENAMGWYRQAPGKERELVAAITQSGGSTYYADSVKGRFTISRDNAKNTVYLQMNSLKPEDTAVYYCAAGDAYYTEALPFGEYDYWGQGTQVTVSS and report it.
[reply] low polyreactivity

[ask] Consider the sequence QVQLVDSGGGLVHAGGSLRLSCAASGSSFTFYAMGWYRQAPGKERELVARISITGGSTYYADSVKGRFTISRDNAKNTVYLHMNSLKPEDTAVYYCAARYYGEHYDYWGQGTQVTVSS . State its measured polyreactivity (PSR sort gate).
[reply] low polyreactivity

[ask] Look up and report measured polyreactivity (PSR sort gate) for this entry: QVQLEESGGGLVQAGGRLRLSCAASGRTFGRYAMGWDREPPGKERELVAAIRSGGSTYYADSVKGRLTISRDNAKNTVYFQMNSVKQADTAVYYCAADIARHLTGFAYYGLDYWGQGTQVTVSS
[reply] low polyreactivity

[ask] Please supply the value of reported polyreactivity (PSR sort gate) for the item QVQLVESGGGLVQAGGSLRLSCAASGRIFWGYAMGWYRQAPGKERELVAGITTGGSTKYADSVKGRFTISRDNAKNTVYLQMNSLKPVDTAVYYCAADDQYGYVYYAFWGYDYWGQGTQVTVSS
[reply] low polyreactivity

Value sought for every listed sequence: polyreactivity (PSR sort gate).
1. QVQLVESGGGLVQAGGSLRLSCAASGFTFVRYAIGWYRQAPGKERELVSVISRSGGSTNYADSVKGRFTISRDNAKNTVYLQMNSLKPEDTAVYYCAASLQYRRVVKGGDYWGQGTQVTVSS
2. QVQLVESGGGLVQAGGSLRLSCAASGFIFGPYTMGWYRQAPGKERELVAAINNSGSTYYADSVKGRFTISRDNAKNTVYLQMNSLKPEDTAVYYCAAEPIIFVRYDYWGQGTQVTVSS
3. QVHLVESGGGLVQAGGSLRLSCAASGRTFGWNVMGWYRQAPGKERELVAAISGSGGSTYYADSVKGRFTISRDNAKNTVYLQMNSLKPEVTAVYYCAALYGPGREYDYWGQGTQVTVSS
4. QVQLVESCGGLVQAGGSLRLSCAASGRTFGRNAMGWYRQAPGEREMVAVISRGGSTYYADSVKGRFTISRDNAKNTVYLQMNSLKPEDTAVYYCNADTVYTRTAPYDYWGQGTQVTVSS

[reply]
1. high polyreactivity
2. low polyreactivity
3. low polyreactivity
4. low polyreactivity

I have 2 sequences here; please give me polyreactivity (PSR sort gate) for each one.
1. QVQLVESGGGLVQAGGSLRISSAASALIIYDNMGRYRQAPGKERELVAAISSSGGSTSYADSVKGRFTFSRDNANNTVYLQMNSLKPEDTAVYYSAADSYPAYLGFVGFDYWGQGTQVTVSS
2. QVQLVESGGGLVQAGGSLRLTCDASGSTFVYYAMGWYRQAPGKERELVAAITFSGGTTFYADSVKGRFTISRDNANNTVYLQMNSLKPEDTAVYYCAADAGFADQYANYHGDDYWGQGTQVTVSS

[reply]
low polyreactivity
low polyreactivity

* * *

# ASSAY OVERVIEW: yeast display, Sf9 membrane polyspecificity reagent, FACS + sequencing; frameworks hold sequencing errors
ATTRIBUTE MEASURED: polyreactivity (PSR sort gate)

[ask] For the sequence QVQLVESGGGLVQARGSLRLICAASGSTFGVHAMGWSRQAPGKERELVAAITWRGGSTYYADSLKGRFTISRDTAKNTVYLQMNSLKPEDTAVYYCAADPRYYSYEYWGEGTQVTVSS , give its reported polyreactivity (PSR sort gate).
[reply] high polyreactivity

[ask] Recall and state the measured polyreactivity (PSR sort gate) for QVQLVESGGGLVQAGGSLRLSCAASGRIFGYNTMGWYRQAPGNERELVATITGAGSTNYADSVKGLFTISRDNAKNTVYLQMNSLKPEDTAVYYCAASVRWPRVSQRARYGYYYWGQGTQVTVSS .
[reply] high polyreactivity

[ask] Provide measured polyreactivity (PSR sort gate) value, entry: QVQLVESGGGLVQAGGSLRLSCASSGIIYNQNTMGWYRQAPGKERELVAAITFSGGRTSYADSVKGRFTISRDNAKNTFYLQMNSLKPEDSAVYYCNKALWGLYGYWGHGTQVTVSS
[reply] low polyreactivity

[ask] Give the reported polyreactivity (PSR sort gate) for this sequence. QVQLVESGGGLVQAGGSLRLSCAASGRIFRYYPMGWYRQATGKERELVAAITASGGSTYYADSVKGRFTISRDNAKNTVYLQMNSLKPEDTAVYYCAARVAQVAYPDGYWGQGTQVTVSS
[reply] high polyreactivity

[ask] Retrieve polyreactivity (PSR sort gate) measured for QVQLVESGGGLVQAGGSLRLSCSASGSTFFSYAMGWYRQAPGKERELVATITSGGSTFADSVKWRFTISRDNAKNTVYLQMNSLKPEDTAVYYCNTDVVDCLFYHCECRFNYLGQGTQVTVSS and print it.
[reply] low polyreactivity

Report polyreactivity (PSR sort gate) for every entry below.
1. QVQLVESGGGLVQAGGSLRLSCAASGFTFYQYAMGWYRQAPGKERELVAAITWNGGSTFYADSVKGRFTISRDNAKNTVYLQMNSLKPEDTAVYYCAARQYFSSYYEYDYWGQGTQVTVSS
2. QVQLVESGGGLVQAGGSLRLSCAASGFTFYDNAMGWYRQAPGKERELVAAISWGGGSTYYADSVKGRFTISRDNAKNTVYLQMNSLKPEDTAVYYCNVYYGRVLLGFYYWGQGTQVTVSS
3. QVQLQDSGGGLVQAGGSLRLNCATSGTIFVLWYMGCYRQAPGKERELVATINDGANTYYADSVKGRFTINRDNANSTVYLQMNSLQPEDSAVYYCSVYAIIVWGLGYWGQGTQVTVSS
4. QVQLVESVGGLVQAGGSLRLSCAASGRIFAPNAMGRYRQAPGKERELVAAITSRGSRTYYADSVKGRFTISRDIAKNTVYLQMKSLKPEDTAVYYCATPYRAPWGTARNYGLYYYWGQGTQVTVSS
5. QVQLEESGGGLVQAGGSLRLSCAASGRIFGIYAMGWYRQAPGKERELVASITDGTITNYADSVKGRFTISRDNAKNTVYLQMNSLKPEDTAVYYCAAGTQAHAFVVRPIEMDYWGQGTQVTVSS
6. QVQLVESGGGLVQAGGSLRLICAASGITFDYYVMGWSRQAPGKERELVAVITWSGSTYYADSVKGRFTISRDNAKNTVYLQMNSLKPEDTAVYYCAADWVTYYDFEFYYWGQGTQVTVSS

[reply]
high polyreactivity
low polyreactivity
high polyreactivity
high polyreactivity
low polyreactivity
high polyreactivity

* * *

# ASSAY OVERVIEW: yeast display, Sf9 membrane polyspecificity reagent, FACS + sequencing; frameworks hold sequencing errors
ATTRIBUTE MEASURED: polyreactivity (PSR sort gate)

[ask] Identify measured polyreactivity (PSR sort gate) associated with QVQLVESGGGLVQAGGSLRLSCAASGRIFHYYAMGWYRQAPGKEWELVAAISTSGGSTYYADSVKGRFTISRDNANNTVYIQMNSLKPEDTAVYYCAAVLPRYRRFDYWGQGTQVTVSS
[reply] high polyreactivity

[ask] Supply recorded polyreactivity (PSR sort gate) for QVQLVESGGGLVQAGGSLRLSCAASGRTIYTYAMGWYRQAPGKERELVAAITKRGGSTYYADSVKGRFTISRDNAQNTVYLQMNSLKPEDTAVYYCNKELATARGQSLYRTYSGYGYWGQGTQVTVSS here.
[reply] high polyreactivity

[ask] Could you please provide reported polyreactivity (PSR sort gate) for QVQLVESGGGLVQAGGSLRLSCAASGLTFNAYAMGWYRQAPGKERELVADITTSDGSTFYADSVKGRFTISRDNAKNTVYLQMNSLKPEDTAVYYCNADAYGWYSGPWFKWLLWYDYWGQGTQVTVSS ? Thanks!
[reply] low polyreactivity

[ask] Fill in polyreactivity (PSR sort gate) for record QVQLVESGGGLVQAGGSLRLSCAASGGIFKYNAMGWYRQAPGKERELVAAIDTSGGSTYYADSVKGRFTISRDKAKNTVYLQMNSLKPDDTAVYYCAAELCLAQYYYWGQGTQVTVTS
[reply] low polyreactivity

New cases:
[ask] Retrieve polyreactivity (PSR sort gate) measured for QVQLVESGGGLVQAGGSLRLSCAASGRIFQGYVMGWYRQAQGQERELVAAITTGGSTYYADSVKGRFTISRDNAKNTVYLQMNSLKPEDTAVYYCNAVVYVSGYNPYIFGYWGQGTQVTVSS and print it.
[reply] low polyreactivity
